Tested on: SK-OV-3 ovarian
Assay: NCI tumour cell line growth inhibition, 48 h
Please respond with reported TGI for every item in the list.
Report the figure in µM without appending any unit label.

Read off the recorded TGI for `COc1ccc(-c2c(-c3ccc(C#N)c(F)c3)nc(N3CCC(N)CC3)n(C)c2=O)cc1F` 45.8

Read off the recorded TGI for `COc1cc(C(=O)O[C@H](C(=O)NCCCCNC(=O)[C@@H](OC(=O)c2cc(OC)cc3c(C)cccc23)[C@]2(C)CO2)[C@]2(C)CO2)c2cccc(C)c2c1` 6.19

Read off the recorded TGI for `CC(=O)c1c(C)c2cnc(Nc3ccc(N4CCNCC4)cn3)nc2n(C2CCCC2)c1=O` 22.1

Read off the recorded TGI for `COc1ccc2c(c1)C(=O)c1c-2n(CCCN(C)C)c(=O)c2cc([N+](=O)[O-])ccc12` 0.666
